Target protein (sequence): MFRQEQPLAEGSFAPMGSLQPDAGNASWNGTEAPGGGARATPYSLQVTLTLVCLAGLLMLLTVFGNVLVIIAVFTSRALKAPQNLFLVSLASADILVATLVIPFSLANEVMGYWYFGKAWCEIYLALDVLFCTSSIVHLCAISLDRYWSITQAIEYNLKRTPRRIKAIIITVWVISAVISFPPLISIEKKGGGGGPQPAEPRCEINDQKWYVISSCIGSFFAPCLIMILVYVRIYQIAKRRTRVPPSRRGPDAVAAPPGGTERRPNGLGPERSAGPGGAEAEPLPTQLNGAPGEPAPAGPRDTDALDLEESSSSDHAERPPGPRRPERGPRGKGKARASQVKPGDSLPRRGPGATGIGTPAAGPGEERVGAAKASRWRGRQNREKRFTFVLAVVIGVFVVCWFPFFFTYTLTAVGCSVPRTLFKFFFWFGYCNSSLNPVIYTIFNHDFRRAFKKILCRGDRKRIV
Labelling: Ki reported below 500 nM becomes y; at or above becomes n.

{"compound": "CS(=O)(=O)Nc1cccc(-c2ccccc2[C@@H]2Cc3nccn3C2)c1", "cat": "y"}
{"compound": "Fc1ccc(-c2ncco2)c(C2Cc3nccn3C2)c1 (stereo unspecified)", "cat": "y"}
{"compound": "Fc1ccc(C2Cc3nccn3C2)c(-c2cc[nH]n2)c1 (stereo unspecified)", "cat": "n"}
{"compound": "c1ccc([C@@H]2Cc3nccn3C2)c(-c2cncnc2)c1", "cat": "n"}
{"compound": "c1ccc([C@H]2Cc3nccn3C2)c(-c2ncco2)c1", "cat": "n"}

Now look at this one.
Q: Ki under 500 nM? Item: `CNC(=O)c1cccc(-c2ccccc2[C@@H]2Cc3nccn3C2)c1`
A: y

---

- system-name: Alpha-1D adrenergic receptor (Homo sapiens)
- Sequence (P25100 whole entry): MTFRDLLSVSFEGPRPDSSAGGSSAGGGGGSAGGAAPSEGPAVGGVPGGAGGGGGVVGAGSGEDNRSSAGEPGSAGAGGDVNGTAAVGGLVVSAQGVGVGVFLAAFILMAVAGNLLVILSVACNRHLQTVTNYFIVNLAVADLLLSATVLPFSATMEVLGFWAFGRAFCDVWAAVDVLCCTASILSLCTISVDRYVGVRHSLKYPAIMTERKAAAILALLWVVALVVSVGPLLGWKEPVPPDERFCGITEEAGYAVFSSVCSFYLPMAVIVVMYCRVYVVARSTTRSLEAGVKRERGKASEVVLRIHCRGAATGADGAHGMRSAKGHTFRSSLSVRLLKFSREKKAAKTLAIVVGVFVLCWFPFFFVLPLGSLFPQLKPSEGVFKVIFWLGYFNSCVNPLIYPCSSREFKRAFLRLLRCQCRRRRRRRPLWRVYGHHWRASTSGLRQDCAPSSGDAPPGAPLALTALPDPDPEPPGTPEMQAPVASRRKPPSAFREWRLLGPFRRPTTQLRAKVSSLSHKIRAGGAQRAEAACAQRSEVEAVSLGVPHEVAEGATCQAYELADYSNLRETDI
- method: Agonist activity at human adrenergic Alpha-1D receptor expressed in CHO cells assessed as calcium mobilization by FLIPR
assay-metric: EC50

{"compound": "N#Cc1ccccc1[C@@H]1Cc2nccn2C1", "recorded-measurement": "> 10 µM"}
{"compound": "Fc1ccc(-n2cccn2)c(C2Cc3nccn3C2)c1 (centres undefined)", "recorded-measurement": "> 10 µM"}

Q: Need EC50, item `CS(=O)(=O)Nc1cccc(-c2ccccc2[C@@H]2Cc3nccn3C2)c1`
A: > 10 µM

Q: Next up: Fc1ccc(C2Cc3nccn3C2)c(-c2ncco2)c1 (centres undefined)
A: > 10 µM

Q: Next up: `c1ccc(-n2cccn2)c([C@@H]2Cc3nccn3C2)c1`
A: > 10 µM

Q: Next up: Fc1ccc(C2Cc3nccn3C2)c(-c2cc[nH]n2)c1 (centres undefined)
A: 0.276 µM

Q: Next up: `CNC(=O)c1cccc(-c2ccccc2[C@@H]2Cc3nccn3C2)c1`
A: > 10 µM

Q: Next up: Fc1cccc(-c2cncnc2)c1C1Cc2nccn2C1 (centres undefined)
A: > 10 µM

Q: Next up: `c1ccc([C@H]2Cc3nccn3C2)c(-c2ncco2)c1`
A: > 3.57 µM

Q: Next up: `c1ccc(-c2ccccc2[C@@H]2Cc3nccn3C2)cc1`
A: 0.729 µM

Q: Next up: `c1ccc([C@@H]2Cc3nccn3C2)c(-c2ccncc2)c1`
A: 0.656 µM

Q: Next up: `CNS(=O)(=O)CCc1ccccc1[C@@H]1Cc2nccn2C1`
A: > 10 µM

Q: Next up: `c1ccc([C@@H]2Cc3nccn3C2)c(-c2ncco2)c1`
A: 0.146 µM

Q: Next up: Fc1ccc(C2Cc3nccn3C2)c(-n2cccn2)c1 (centres undefined)
A: > 4.1 µM
